Recorded values, source PubChem BioAssay (NCI).

Test system: OVCAR-3 ovarian
Test: NCI-60 one-dose screen, 48 h (100 = growth as untreated, 0 = no growth, -100 = all killed)
Settings: 10 µM
Procedure: Growth inhibition of the OVCAR-3 human tumor cell line is measured as a screen for anti-cancer activity. Cells are grown in 96 well plates and exposed to the test compound for 48 hours. Compounds are tested at a single concentration, which is 10^-5 M for most compounds. The reported endpoint is percent growth (GI% or GIPRCNT), where numbers from 0 - 100% represent growth inhibition, and numbers from -100% - 0 represent cell death. For example, a value of 40 represents 60% growth inhibition. […]
The panel holds about 83,000 compounds, 20% with a hit somewhere; the sample as a whole holds those more often.
REPORTED PROPERTY: growth (%)
Form entry: value (%) — number only.

COMPOUND	TARGET OR TEST SYSTEM	growth (%)
O=C(c1ccc(Cl)cc1)C1[C@H](c2ccccc2Br)[C@@H](c2ccccc2)NC12C(=O)Nc1ccccc12 (some centres undefined)	OVCAR-3 ovarian	10.5
COc1ccc(/C=C/C(=O)c2ccc(NC(=O)CN3C(=O)NC(C)(c4ccccc4)C3=O)cc2)cc1 (centres undefined)	OVCAR-3 ovarian	78.2
O=C1Nc2ccc(Cl)cc2/C1=C/c1ccc(OCc2ccc(Br)cc2F)cc1	OVCAR-3 ovarian	0.51

Recall the recorded growth for CN1C(=O)N(C)C2SC(N/N=C/c3ccc(F)cc3)=NC21 (centres undefined) with OVCAR-3 ovarian and state it. -41.9

Lookup: growth / OVCAR-3 ovarian / CC(=O)c1ccc(Nc2nc(SCCC(C)C)nc(-c3ccc(F)cc3)c2C#N)cc1 19

----------
test system: NCI-H522 lung; test: NCI-60 one-dose screen, 48 h; details: 10 µM
About 83,000 compounds went through this panel and 20% of them were active in at least one assay; those are over-represented in the sample as a whole. Activity calls are given as the source filed them. The calls were made as follows: active = growth percent below 10; inactive = the rest.
The reply should be one of these categories: Y for active, N for inactive

COMPOUND	LABEL VALUE
CC(=O)Nc1nc(-c2ccc(N3CCN(C)CC3)c(NS(=O)(=O)c3cccc4c(N(C)C)cccc34)c2)cs1	N
O=c1[nH]n(C(=S)N/N=C/c2ccc(F)cc2)c(=O)c2ccccc12	N
CCOc1ccc(/C=N/NC(=O)Cn2nc(Cc3ccc([N+](=O)[O-])cc3)c3onc(C)c3c2=O)cc1	N
C/C(=N\N=C\c1ccc(N(C)C)cc1)c1ccc2c(c1)Nc1ccccc1S2	N

Entry CC1(C)CC[C@]2(C(=O)NCCCNCCCCNCCCN)CC[C@]3(C)C(=CC[C@@H]4[C@@]5(C)Cc6c([nH]c7ccccc67)C(C)(C)[C@@H]5CC[C@]43C)[C@H]2C1 : call = ? N

----------
system: SNB-19 CNS; assay: NCI-60 one-dose screen, 48 h (100 = growth as untreated, 0 = no growth, -100 = all killed); settings: 10 µM
The panel holds about 83,000 compounds, 20% with a hit somewhere; the sample as a whole holds those more often. Calls of active or inactive are those of the source. How the source made its calls: active means growth percent below 10; inactive means the rest.
Listing of recorded growth by entry.

MOLECULE	growth
COc1ccc(/C(CSc2nnc(-c3c[nH]c4ccccc34)n2-c2ccccc2)=N/O)cc1	40.3% (inactive)
Cc1ccc(-c2nc(Nc3ccccc3C(=O)O)c3ccccc3n2)cc1	8.82% (active)

Form field: growth recorded for COc1ccc([C@H]2C(C(=O)c3ccc(Cl)cc3)C3(N[C@@H]2c2ccccc2)C(=O)Nc2ccc(Br)cc23)cc1 (some centres undefined) with SNB-19 CNS (enter value) 20.1% (inactive)

Form: Entry = COc1ccc(/C(C)=N/N=C2C(=O)N(C)c3ccc(Br)cc32)cc1S(N)(=O)=O | System = SNB-19 CNS | growth = ____ 34.7% (inactive)

// map O=c1[nH][nH]c(Nc2ccccc2)c1N=Nc1ccc(F)cc1 to recorded growth (system: SNB-19 CNS) 95.3% (inactive)

Given the entry CCOC(=O)C1NN(c2ccc(S(N)(=O)=O)cc2)c2nc3nc(-c4cccs4)cc(-c4cccs4)c3c(=O)n21 (centres undefined) , what growth was observed with SNB-19 CNS? 96.4% (inactive)

Any idea what growth came out for CCOC(=O)C1=C(N)N(c2ccc(Cl)cc2)C2=C(C(=O)CC(C)(C)C2)C1c1ccc(N2CCOCC2)cc1 (centres undefined) on SNB-19 CNS? 91.2% (inactive)

# get_value(readout= growth, system= SNB-19 CNS) for O=[N+]([O-])c1ccc(-c2nc(-c3ccccc3)c(-c3ccccc3)n2-c2ccc(S(=O)(=O)Nc3ncccn3)cc2)cc1 27.3% (inactive)

Tell me reported growth for CC(C)(C)Nc1nc2cc(Cl)c(Cl)cc2nc1S(C)(=O)=O , tested with SNB-19 CNS. 102% (inactive)

Record lookup: for SNB-19 CNS, what growth belongs to O=C(Cc1ccc2c(c1)CN(C1CCC(=O)NC1=O)C2=O)NCCc1ccccc1 (centres undefined) ? 15.6% (inactive)

Quick check: growth on SNB-19 CNS, item COc1ccc(Nc2nc(N)n(Cc3cccc(Br)c3)n2)cc1 ? 18.6% (inactive)

Reported growth for SNB-19 CNS, given Cn1cc(/C=N/Nc2ccnc3cc(Cl)ccc23)c2ccccc21 ? -79.8% (active)

Form field: growth recorded for CCCSc1nc(NC2CC2)c(C#N)c(-c2ccc(OC)cc2)n1 with SNB-19 CNS (enter value) 70.3% (inactive)

Missing value: growth, SNB-19 CNS, entry COc1ccc(OC)c(-c2cc(-c3c[nH]c4ccccc34)nc(N)c2C#N)c1 . Fill in? 11.6% (inactive)

State its growth on SNB-19 CNS: S=c1nc(-c2ccccc2)cc(-c2cc3ccccc3nc2Cl)[nH]1 81.2% (inactive)

Quick check: growth on SNB-19 CNS, item COc1ccc2[nH]c(=O)c(CSc3nccc(-c4ccc(Cl)cc4)n3)cc2c1 ? 40.5% (inactive)

----------
test system: A549/ATCC NSCLC; assay: NCI-60 one-dose screen, 48 h (100 = growth as untreated, 0 = no growth, -100 = all killed); details: 10 µM
About 83,000 compounds went through this panel and 20% of them were active in at least one assay; those are over-represented in the sample as a whole.
# reported growth; entries follow
All answers are understood in %, so give the number only.

For orientation, consider the following solved cases.
MOLECULE	READING
CCOC(=O)C1=C(N)N(c2ccccc2)C2=C(C(=O)CC(C)(C)C2)C1c1ccccc1OC (centres undefined)	103
O/N=C(\CSc1nnc(-c2c[nH]c3ccccc23)n1-c1ccccc1)c1ccc(Cl)cc1	21.5
CCN1CCN(Cc2ccc(NC(=O)c3cccc(-n4cc(-c5ccc(NC(C)=O)nc5)nn4)c3)cc2C(F)(F)F)CC1	96.4
O=C1Nc2cc(-c3ccc(NC(=O)c4cccs4)cc3)ccc2/C1=C/c1ccc[nH]1	81.7
O=C1Nc2ccc(Cl)cc2/C1=C/c1ccc(OCc2ccccn2)cc1	64.4

Sample Cc1ccc(CSc2nc(-c3ccc(F)cc3)c(C#N)c(=O)[nH]2)cc1 — what was its growth? 89.8

What measured growth goes with O=C(CNc1nc(-c2ccccc2)cs1)Nc1ccc([N+](=O)[O-])cc1 ? 42.8

Endpoint output: growth of CN(C)c1nc(NCCNS(=O)(=O)c2ccc(C(=O)/C=C/c3ccccc3)cc2)nc(Nc2ccc(F)cc2)n1 . Value? 45.4

# lookup: growth of Cc1noc2c(Cc3ccc([N+](=O)[O-])cc3)nn(CC(=O)N/N=C/c3ccc(Cl)cc3)c(=O)c12 40.1

Given the molecule COc1cc2c3c(n(CCCNCCO)c(=O)c2cc1OC)-c1nc2c(cc1C3=O)OCO2 , what is its reported growth? 35.6

----------
system: UACC-62 melanoma; assay: NCI-60 one-dose screen, 48 h (100 = growth as untreated, 0 = no growth, -100 = all killed); settings: 10 µM
This is part of a sample that, as a whole, favours compounds with a hit. Of some 83,000 tested, about 20% had one in any assay. Active and inactive are the calls of the source. Rule for the calls: active = growth percent below 10; inactive = the rest.
# growth per record follows

COMPOUND	TARGET OR TEST SYSTEM	growth
CN1C(=O)N(C)C2SC(N/N=C/c3cccs3)=NC21 (configuration not stated)	UACC-62 melanoma	4.74% (active)
Cc1ccc(-c2ccc(SCC(=O)Nc3ccc(S(N)(=O)=O)cc3Br)nn2)cc1	UACC-62 melanoma	60% (inactive)
O=C(Nc1ccc(I)cc1F)c1cc(-c2ccc(F)cc2F)ccc1O	UACC-62 melanoma	-14.4% (active)
O=C1NC(=NC23CC4CC(CC(C4)C2)C3)N/C1=C\c1ccc2ncsc2c1	UACC-62 melanoma	7.15% (active)
CC1(C)[C@@H](NCO)CC[C@]2(C)[C@H]3C(=O)C=C4[C@@H]5C[C@](C)(CO)CC[C@]5(C)CC[C@@]4(C)[C@]3(C)CC[C@@H]12	UACC-62 melanoma	50.2% (inactive)
CN(C)c1ccc(/C=C/C(=O)c2ccc(NC(=O)CN3C(=O)NC(C)(c4ccccc4)C3=O)cc2)cc1 (configuration not stated)	UACC-62 melanoma	46.6% (inactive)
O=C(Nc1nc2ccccc2s1)c1ccc(Br)cc1	UACC-62 melanoma	73.3% (inactive)
COc1ccc(C(C)=C(c2ccc(OCCCN(C)C)cc2)c2ccc(OCCCN(C)C)cc2)cc1	UACC-62 melanoma	-96.6% (active)

Tell me reported growth for O=C(Cn1nc(-c2ccccc2)ccc1=O)NN1C(=O)c2ccccc2C1=O , tested with UACC-62 melanoma. 106% (inactive)

Param readout = growth; param system = UACC-62 melanoma; param query = Cc1ccc(-c2nc3ccc(C(=O)N=Nc4c(O)[nH]c5ccc(Br)cc45)cc3[nH]2)cc1 ; response: value 98% (inactive)

Which growth is reported with UACC-62 melanoma for this entry: N#Cc1ccc(-c2nn(-c3ccc(C(=O)O)cc3)cc2CNc2cc(Cl)cc(Cl)c2)cc1 ? 28.5% (inactive)
